These data points were gathered from ChEMBL document CHEMBL1201862.

Below, each of the compounds is paired with its reported GI50 value.
test system: OVCAR-4; experiment: NCI tumour cell line growth inhibition, 48 h
The source made the active and inactive calls. Rule as the data show it: active = GI50 up to about 1.1 µM and inactive = higher.
endpointLabel: GI50

In [3]: df
Out[3]:
                                   compound               result
0  Cc1c2cccc-2ccc2c3ccccc3n(C(=O)c3ccc(Cl)cc3)c12  > 100 µM (inactive)
1  CC(C)=CC(=O)OC1C2C(C)=CC(O)C(O)C2(C)C2C3(O)OCC24C(CC(=O)OC14)C(C)C3O (centres undefined)   0.0647 µM (active)
2  COC(=O)[C@]12CC[C@H]3CN(C(=O)OCc4ccccc4)[C@H]([C@H]31)[C@H](c1ccco1)N2S(=O)(=O)c1ccc(C)cc1   28.5 µM (inactive)
3  O=C1CCC2(O)C3Cc4ccc(Oc5nnnn5-c5ccccc5)c5c4C2(CCN3CC2CC2)C1O5 (centres undefined)   79.6 µM (inactive)
4  CCN1C(=O)C(=Cc2ccc(-c3ccccc3)cc2)C(=O)N(CC)C1=S  > 100 µM (inactive)
5  NC1=NC(Cn2nc(-c3ccccc3)c3ccccc3c2=O)=NNC(=O)N1  > 100 µM (inactive)
6       O=C1C(N2CCOCC2)=C(Cl)C(=O)c2ncccc21   1.56 µM (inactive)
7  COC(=O)/C=C(\C)CCC1SC1(C)C (centres undefined)  > 100 µM (inactive)
8  CC(=O)Nc1cc(C(=O)Nc2cc(C(=O)Nc3cc(C(=O)Nc4cc(C(=O)Nc5cc(C(=O)NCCC(=O)NCCCN(C)C)n(C)c5)n(C)c4)n(C)c3)n(C)c2)n(C)c1  > 100 µM (inactive)

----------
tested on: A498; assay: NCI tumour cell line growth inhibition, 48 h
The source made the active and inactive calls. Rule as the data show it: active = GI50 up to about 1.1 µM and inactive = higher.
Outcomes: active, inactive

>>> df
                                    compound  experimentalsystem  classassignment
 0  CC12CCC(/C(=N/c3cc(C(F)(F)F)cc(C(F)(F)F)c3)C1=O)C2(C)C (stereo not given)                A498         inactive
 1         O=c1c2ccccc2n2c(S)nnc2n1-c1ccccc1                A498         inactive
 2  COc1ccc(/C=C2/C[N+](C)(C)C/C(=C/c3ccc(OC)cc3)C2=O)cc1                A498         inactive
 3  COc1ccc(C(C)NNC(=O)c2ccncc2)c(OC)c1 (stereo not given)                A498         inactive
 4  CC1=NN(C(=O)c2ccc(Cl)cc2)C(=O)/C1=C/c1ccc(Cl)cc1                A498         inactive
 5       O=C(/C(=C/c1cccs1)c1ccccc1)c1ccccc1                A498         inactive
 6  Cc1ccc(Nc2nc(=O)[nH]c(=O)[nH]2)cc1N=[N+]=[N-]                A498         inactive
 7  c1ccc2c(CNCCCCCCNCc3cccc4ccccc34)cccc2c1                A498         inactive
 8  COC1C2C[C@@H](O)CCC2C(C(=O)OCCl)C[C@H]1O (stereo not given in full)                A498         inactive
 9  COc1ccc(C2=NN(C(=O)c3ccc(Cl)cc3)C(O)(c3cc(F)c(Cl)cc3Cl)C2)cc1OC (stereo not given)                A498         inactive
10  O=C1Nc2ccccc2/C1=C\c1c(-c2ccccc2)nc2n1CCS2                A498         inactive
11  O=C(O)C(Cc1ccc(O)cn1)NC(=O)C(F)(F)F (stereo not given)                A498         inactive
12           N#C/C=c1/c2ccccc2n2nc3ccccc3c12                A498         inactive
13                 CNC(=O)c1nnn(C2CCCCC2)c1S                A498         inactive
14                    C1CSCCCSCCCSCCCSCCCSC1                A498         inactive
15  CSc1ccc(NC(=O)C2c3[nH]c4ccccc4c3C3CCC(C(C)(C)C)CC3C2C(=O)O)cc1 (stereo not given)                A498         inactive
16           c1ccc2cc3c(NC4=NCCO4)cccc3cc2c1                A498         inactive
17  C[C@]12Cc3cnc(-c4ccccc4)nc3C[C@@H]1CC[C@@H]1[C@@H]2CC[C@@]2(C)[C@H]1CC[C@]2(C)O                A498         inactive
18            O=c1c2cccc3cccc(c4n1CCCN=4)c32                A498         inactive
19  CN(C)C(=O)C1CCC(=C2C(=O)OC(C)(C)OC2=O)N1C (stereo not given)                A498         inactive
20  CCCC(=O)OCOC(=O)N(C)/N=N/c1ccc(C(=O)OCC)cc1                A498         inactive
21  O=C(OCC1OC(c2nn[nH]n2)C(OC(=O)c2ccccc2)C1OC(=O)c1ccccc1)c1ccccc1 (stereo not given)                A498         inactive
22  CCOC(=O)C1(C/C=C/CCl)CCCC1=O (stereo not given)                A498         inactive
23    NCCNCCCNC(=O)c1cc(-c2ccccc2)nc2ccccc12                A498         inactive
24           O=C1C[C@@H]2CCCC[C@@H]2C12SCCS2                A498         inactive
25       O=C1C(N2CCOCC2)=C(Cl)C(=O)c2ncccc21                A498         inactive
26  COC(=O)[C@]12CC[C@H]3CN(C(=O)OCc4ccccc4)[C@H]([C@H]31)[C@H](c1ccco1)N2S(=O)(=O)c1ccc(C)cc1                A498         inactive
27  FC(F)(F)c1ccc2c(c1)nc(-c1ccccc1)n2CC1CCCN2CCCCC12 (stereo not given)                A498         inactive
28          CN1CCC(CN2c3ccccc3Sc3ccccc32)CC1                A498         inactive
29        N[C@@H](CSCSC[C@H](N)C(=O)O)C(=O)O                A498         inactive
30  O=C(CCCN1CCC2(CC1)C(=O)NC(=O)N2c1ccccc1)c1ccc(F)cc1                A498         inactive
31  Cc1ccc(O)c(-c2csc(NCN3CCN(CNc4nc(-c5cc(C)ccc5O)cs4)CC3)n2)c1                A498         inactive
32  CC(C)(C)OC(=O)N(CCCCNC(=O)C(F)(F)F)CCCNC(=O)C(F)(F)F                A498         inactive
33     CCO/N=C\c1ccc2oc(-c3ccccc3)cc(=O)c2c1                A498           active
34        CN(C)CCCn1nc(N)c2nc3cc(Cl)ccc3nc21                A498         inactive
35            O=C1C2=C(CCCC2)Nc2cccc3ncn1c23                A498         inactive
36  Cn1c2c(c3ccccc31)CCN(CCCN1CCN(c3cccc(Cl)c3)CC1)C2=O                A498         inactive
37  CCSc1c2ccccc2c(-c2nc(F)nc(F)n2)n1CCc1ccccc1                A498         inactive
38               COC(=O)c1ccccc1NC(=S)NN(C)C                A498         inactive
39            Cc1nc(N)c(N2CCN(C#N)CC2)c(O)n1                A498         inactive
40  COc1ccc2c3c(n(Cc4ccccc4)c(=O)c2c1)-c1cc(OC)c(OC)cc1C3C (stereo not given)                A498         inactive
41                       CCCCc1nc(C)oc1C(C)C                A498         inactive
42    CC(C)=CC(=O)Cc1nc2cc(C)c(C)cc2[nH]c1=O                A498         inactive
43     O=C1N/C(=N/N=C/c2cccs2)N/C1=C\c1ccco1                A498         inactive
44  Clc1ccccc1C1=NN(c2ccccc2)C2c3ccccc3OCC12 (stereo not given)                A498         inactive
